molecular target: CaSho1; test: SPOT peptide array binding signal intensity (averaged, normalized) (arbitrary units (background-subtracted, floor 0; scale differs between SH3 domains)); higher = stronger binding of the SH3 domain to the peptide
measured_attribute: SPOT peptide array binding signal intensity

Could you share which SPOT peptide array binding signal intensity value was measured for LLRRTIPKRPFYHVL ? 608

Looking for the measured SPOT peptide array binding signal intensity of SKSRLLIELPEGFFT , can you help? 56.5

Can you look up the measured SPOT peptide array binding signal intensity of LKHGWKPLRPIKLIS for me? 201

Now turn to the next binder.
Data request, read-out SPOT peptide array binding signal intensity, for ISNFVPPNLPMRRFK 49.5
